Molecular target: recombinant Human Phosphodiesterase B2 (PDE4B2) (Homo sapiens)
Sequence (Q07343 1-564 isoform Q07343-2): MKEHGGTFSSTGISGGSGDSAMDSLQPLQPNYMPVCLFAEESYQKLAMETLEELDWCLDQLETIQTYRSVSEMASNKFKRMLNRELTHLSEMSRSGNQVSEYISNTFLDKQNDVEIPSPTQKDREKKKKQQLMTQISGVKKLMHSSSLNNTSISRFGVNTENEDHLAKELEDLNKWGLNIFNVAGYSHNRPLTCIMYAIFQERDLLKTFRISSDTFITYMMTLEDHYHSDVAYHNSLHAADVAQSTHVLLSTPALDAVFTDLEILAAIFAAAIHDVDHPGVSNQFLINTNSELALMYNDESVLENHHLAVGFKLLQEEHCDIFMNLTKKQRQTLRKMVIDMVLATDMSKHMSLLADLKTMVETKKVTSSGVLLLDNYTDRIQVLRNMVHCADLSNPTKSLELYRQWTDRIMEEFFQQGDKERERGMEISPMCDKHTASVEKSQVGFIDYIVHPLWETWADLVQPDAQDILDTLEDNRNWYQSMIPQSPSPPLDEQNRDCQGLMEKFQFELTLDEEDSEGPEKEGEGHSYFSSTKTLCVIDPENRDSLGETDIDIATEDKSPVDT
Assay: Human Phosphodiesterase B2 Alpha Screen Assay
Details: recombinant human PDE4B2, cAMP substrate, 60 min at room temperature
Flag rule - IC50 less than 30 nM flags Condition met; the remaining entries get Condition not met.

stdin: I wonder whether CCc1nn(C2CCCC2)c2c1C(=O)NCC(CCC(=O)OC)=N2 has IC50 below 30 nM. Can you tell?
stdout: Condition met

stdin: I wonder whether CCc1nn(C2CCCC2)c2c1C(=O)NCC(c1ccccc1OC)=N2 has IC50 below 30 nM. Can you tell?
stdout: Condition met

stdin: I wonder whether CCc1nn(C2CCCC2)c2c1C(=O)NCC(c1ccc(C)cc1)=N2 has IC50 below 30 nM. Can you tell?
stdout: Condition met

stdin: I wonder whether CCc1nn(C2CCCC2)c2c1C(=O)NCC(c1ccccc1)N2 (centres unmarked) has IC50 below 30 nM. Can you tell?
stdout: Condition not met

stdin: I wonder whether CCc1nn(C2CCCC2)c2c1C(=O)NCC(c1ccc(OC)c(OC)c1)=N2 has IC50 below 30 nM. Can you tell?
stdout: Condition met
